Would you mind telling me the reported pKd of each entry?
target: LiCre (asLOV2-Cre chimera) (synthetic chimera (Avena sativa LOV2?)); test: SPR; details: SPR (Biacore T200, SA chip): 20 mM Tris pH 7.4, 50 mM KCl, 150 mM NaCl, 10 mM MgCl2, 1 mM DTT, 0.05% P20; 25 C; 0.3125-10 nM protein; no blue light
Give bare numbers, as −log10 of the molar value.

{"chain": "CGGAATTCAGATCTATAACTTCGTATAATGTGTCTAGAGGATCCGC (double strand) [half loxP (1Y70/1Y71)]", "pKd": 9.31}

Pending sequence:
Record CGGAATTCACAACTTCGTATAATGTATGCTATACGAAGTTATGGATCCGC (double strand) [full loxP (1Y68/1Y69)] . Reported pKd: 11.21
